All values here come from the RNAGym collection of RNA variant scans (doi:10.1021/acssynbio.7b00057).

B1: Pistol ribozyme (parent)
chain: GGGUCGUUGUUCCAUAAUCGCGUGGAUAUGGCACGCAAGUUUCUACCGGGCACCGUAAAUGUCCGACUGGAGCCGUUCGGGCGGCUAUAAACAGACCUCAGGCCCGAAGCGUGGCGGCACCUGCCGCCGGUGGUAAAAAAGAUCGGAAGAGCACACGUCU

- Variants of: B1
- test.summary: aptazyme ON/OFF ratio, guanine; higher = stronger switching; co-transcriptional cleavage with and without guanine

mutation.annotation: U7C U8C G9A U10A U11G C12G C13G
aptazyme ON/OFF ratio: 1.15

mutation.annotation: U7C G9U U10G U11C C12G
aptazyme ON/OFF ratio: 1.09

mutation.annotation: U7C U8C G9U U11G C12U C13U
aptazyme ON/OFF ratio: 1.09

mutation.annotation: U7C U8C U11C C13U
aptazyme ON/OFF ratio: 1.3

mutation.annotation: U7G U8G U10C U11C C13G
aptazyme ON/OFF ratio: 1.07

mutation.annotation: U7C U8G G9U U11G C12U
aptazyme ON/OFF ratio: 1.27

mutation.annotation: U7C U8G U10G U11C C12G C13U
aptazyme ON/OFF ratio: 1.26

mutation.annotation: U8C C12U C13U
aptazyme ON/OFF ratio: 1.28

mutation.annotation: G9U U10A U11A C12G C13U
aptazyme ON/OFF ratio: 1.64

mutation.annotation: U7C U8G G9U U10A U11A C12G
aptazyme ON/OFF ratio: 1.11

mutation.annotation: U7G U8G G9U U10A C12U C13U
aptazyme ON/OFF ratio: 1.06

mutation.annotation: U7G U8C G9A U11C C13A
aptazyme ON/OFF ratio: 1.34

mutation.annotation: U7A U8A U10G C12G
aptazyme ON/OFF ratio: 1.43

mutation.annotation: U7G U10A
aptazyme ON/OFF ratio: 1.18

mutation.annotation: U7A U8A G9U U10G U11G C12A C13A
aptazyme ON/OFF ratio: 1.24

mutation.annotation: U8C G9A U11A C12U C13A
aptazyme ON/OFF ratio: 1.21

mutation.annotation: U7C U8A G9A U11A C12A
aptazyme ON/OFF ratio: 1.2

mutation.annotation: U7G U8A G9C U11G
aptazyme ON/OFF ratio: 1.04

mutation.annotation: U7A G9C U10C C12U C13G
aptazyme ON/OFF ratio: 1.01

mutation.annotation: U7G U8A U10C U11C C12G C13A
aptazyme ON/OFF ratio: 1.32

mutation.annotation: U7C U8A G9U U10G C12G C13U
aptazyme ON/OFF ratio: 1.22

mutation.annotation: U8A G9A U10C C13U
aptazyme ON/OFF ratio: 1.11

mutation.annotation: U8C G9A U10A
aptazyme ON/OFF ratio: 1.78

mutation.annotation: U7C G9A U10G C13G
aptazyme ON/OFF ratio: 1.02

mutation.annotation: U7C U8C G9A U10C C12A C13G
aptazyme ON/OFF ratio: 1.2

mutation.annotation: U7C U8A G9C U10G C12A C13G
aptazyme ON/OFF ratio: 1.09

mutation.annotation: U7A U8G G9U U10C U11G C13U
aptazyme ON/OFF ratio: 1.31

mutation.annotation: U7C U8G G9C U10A U11C C12U C13G
aptazyme ON/OFF ratio: 1.12

mutation.annotation: U7A U8C G9A U10G U11G C12U C13G
aptazyme ON/OFF ratio: 1.33

mutation.annotation: U7A U8G U10A U11A C12G C13A
aptazyme ON/OFF ratio: 1.56

mutation.annotation: G9C U10A U11G C12U C13U
aptazyme ON/OFF ratio: 1.26

mutation.annotation: U7A U8G U10A U11A C12U C13A
aptazyme ON/OFF ratio: 1.72

mutation.annotation: U7C U8C U10C U11A C12A C13U
aptazyme ON/OFF ratio: 1.45

mutation.annotation: U7A G9U U10G U11A C12G C13G
aptazyme ON/OFF ratio: 1.21

mutation.annotation: U7A U8C G9C C12A C13U
aptazyme ON/OFF ratio: 1.07

mutation.annotation: U7A U8C G9U U10C U11C C12U C13G
aptazyme ON/OFF ratio: 1.08

mutation.annotation: U7G U10G U11C C12U
aptazyme ON/OFF ratio: 1.17

mutation.annotation: U7G U8G U10C U11C C12G C13A
aptazyme ON/OFF ratio: 1.24

mutation.annotation: U7A U8G G9U U11C C12G C13U
aptazyme ON/OFF ratio: 1.27

mutation.annotation: U7A U8G G9A U10G U11A C12A C13A
aptazyme ON/OFF ratio: 1.19

mutation.annotation: U8C G9U U10A U11C C13U
aptazyme ON/OFF ratio: 1.02

mutation.annotation: U7C U8G G9C U10G C12G
aptazyme ON/OFF ratio: 1.16

mutation.annotation: U8C G9U U10G U11G C12G C13U
aptazyme ON/OFF ratio: 1.26

mutation.annotation: G9U U10C U11A C12G C13A
aptazyme ON/OFF ratio: 1.48

mutation.annotation: U8A G9A U10C U11A C12U
aptazyme ON/OFF ratio: 1.19

mutation.annotation: U8C G9A U10A U11C C12U C13U
aptazyme ON/OFF ratio: 1.14

mutation.annotation: U7A U10C C13U
aptazyme ON/OFF ratio: 1.13

mutation.annotation: U7C U8A G9U U10A U11C C12G C13A
aptazyme ON/OFF ratio: 1.13

mutation.annotation: U7C U8C G9U U10A U11C C12A C13U
aptazyme ON/OFF ratio: 1.18

mutation.annotation: U8C G9C U10G U11A C12U C13A
aptazyme ON/OFF ratio: 1.06

mutation.annotation: G9U U10C U11A C12A C13G
aptazyme ON/OFF ratio: 1.24

mutation.annotation: U8G G9A U10A U11A
aptazyme ON/OFF ratio: 1.6

mutation.annotation: U8C G9C U10A U11C C12A C13A
aptazyme ON/OFF ratio: 1.27

mutation.annotation: U7C U8A G9C U11G C12G
aptazyme ON/OFF ratio: 1.2

mutation.annotation: U7A U8A U10C U11A
aptazyme ON/OFF ratio: 1.2

mutation.annotation: U7A G9U U11G C13U
aptazyme ON/OFF ratio: 1.31

mutation.annotation: U7A U8A G9U U10G U11A C12U C13A
aptazyme ON/OFF ratio: 1.14

mutation.annotation: U8G U11A C12G C13G
aptazyme ON/OFF ratio: 1.09

mutation.annotation: U7G G9C U10G C12A
aptazyme ON/OFF ratio: 1.65

mutation.annotation: U7C U8A G9U U10G U11G C12A C13U
aptazyme ON/OFF ratio: 1.26

mutation.annotation: G9U U11C C12A C13A
aptazyme ON/OFF ratio: 1.48

mutation.annotation: U7G U8C C12U
aptazyme ON/OFF ratio: 1.2

mutation.annotation: U8C U10C U11A C12A C13G
aptazyme ON/OFF ratio: 1.14

mutation.annotation: U7A U8C G9A U10G U11G C12G C13U
aptazyme ON/OFF ratio: 1.12

mutation.annotation: U8C G9C U11C C12G C13U
aptazyme ON/OFF ratio: 1.15

mutation.annotation: U7C U8C U11G C12A C13U
aptazyme ON/OFF ratio: 1.2

mutation.annotation: U7G U8A U10A U11G C12A C13U
aptazyme ON/OFF ratio: 1.17

mutation.annotation: U7C U8G G9C U10G U11C C12A C13A
aptazyme ON/OFF ratio: 1.31

mutation.annotation: U7A U8C U10G U11A C12A C13G
aptazyme ON/OFF ratio: 1.15

mutation.annotation: U7C U8A U11G C12G C13U
aptazyme ON/OFF ratio: 1.13

mutation.annotation: U8G G9A U10A U11A C12A C13G
aptazyme ON/OFF ratio: 1.18

mutation.annotation: U7A U8A U10A C12A
aptazyme ON/OFF ratio: 1.33

mutation.annotation: G9C U10C U11A C13U
aptazyme ON/OFF ratio: 1.07

mutation.annotation: U7A G9C U10C U11C C13A
aptazyme ON/OFF ratio: 1.01

mutation.annotation: U7C U8G G9C U10C U11A C12A C13U
aptazyme ON/OFF ratio: 1.09

mutation.annotation: U7A U8G G9C U10C C12A
aptazyme ON/OFF ratio: 1.15

mutation.annotation: U7A U8A G9C C12U C13U
aptazyme ON/OFF ratio: 1.42

mutation.annotation: U7G U8G
aptazyme ON/OFF ratio: 1.29

mutation.annotation: U7G U8C G9C U10G C12A C13G
aptazyme ON/OFF ratio: 1.1

mutation.annotation: U7C U8C G9C U10C C12G
aptazyme ON/OFF ratio: 1.14

mutation.annotation: U7C G9U U10G C12G C13U
aptazyme ON/OFF ratio: 1.11

mutation.annotation: U7A U8A G9A U10C U11C C12G C13U
aptazyme ON/OFF ratio: 1

mutation.annotation: U7C U8G U11G C12A C13U
aptazyme ON/OFF ratio: 1.18

mutation.annotation: U8G G9A U11C C12G C13G
aptazyme ON/OFF ratio: 1.18

mutation.annotation: U7A U8G G9U U10G U11C C12U C13A
aptazyme ON/OFF ratio: 1.1

mutation.annotation: U8A U10G U11G C12G C13G
aptazyme ON/OFF ratio: 1.06

mutation.annotation: U7A U8C U11G C12G C13A
aptazyme ON/OFF ratio: 1.04

mutation.annotation: U7G U8A G9A U10C U11C C12A C13U
aptazyme ON/OFF ratio: 1.08

mutation.annotation: U8A G9U U10A U11G C12U C13A
aptazyme ON/OFF ratio: 1.27

mutation.annotation: U7A U8A U10G U11G C12U
aptazyme ON/OFF ratio: 1.46

mutation.annotation: U7C U8G U10G U11A C12A C13G
aptazyme ON/OFF ratio: 1.13
